assay: acute toxicity; settings: in vivo, ip; female mouse
recorded.metric: LD50 (mg/kg)
I only need the number, in mg/kg, no unit after it.

Lab note: CC(SC(=O)CCC(=O)OCn1cnc2c1c(=O)n(C)c(=O)n2C)C(=O)NCC(=O)O (stereo not shown) gave LD50 of 481
